Each item that follows carries a reported Papp.
experiment: Apparent permeability of the compound after 15 hrs by UPLC-MS based PAMPA; format: ADME; conditions: pampa, 15 h

Worked cases, Papp given:
SMILES CODE	Papp
CC(C)C[C@@H]1NC(=O)[C@@H](CC(C)C)NC(=O)[C@H](CC(C)C)NC(=O)[C@@H](CC(C)C)NC(=O)[C@H]2CCCN2C(=O)[C@H](CC(C)C)NC1=O	8 10^-6 cm/s
CC(C)C[C@@H]1NC(=O)[C@@H](CC(C)C)NC(=O)[C@H](CC(C)C)NC(=O)[C@@H](CCC(=O)N2CCCC2)NC(=O)[C@H]2CCCN2C(=O)[C@H](CC(C)C)NC1=O	1.5 10^-6 cm/s

Please turn your attention to the following entry.
### Prompt Specify measured Papp for CC(C)C[C@@H]1NC(=O)[C@@H](CC(C)C)NC(=O)[C@@H](CC(C)C)NC(=O)[C@@H](CC(C)C)NC(=O)[C@H]2CCCN2C(=O)[C@H](CC(C)C)NC1=O .
### Response 8.1 10^-6 cm/s

----------
assay: Thermodynamic solubility of the compound at pH 7.4 after 24 hrs by UPLC-MS analysis; type: physicochemical; details: buffer, read-out: Therm_solubility
Would you mind labelling by solubility thermodynamic at 24 h? At or over 400 µM is TRUE, under is FALSE.

SMILES CODE	ASSIGNED CATEGORY
COC(=O)CC[C@H]1NC(=O)[C@H]2CCCN2C(=O)[C@H](CC(C)C)NC(=O)[C@H](CC(C)C)NC(=O)[C@@H](CC(C)C)NC(=O)[C@H](CC(C)C)NC1=O	TRUE
CC(C)C[C@@H]1NC(=O)[C@@H](CCC(=O)N2CCCC2)NC(=O)[C@@H](CC(C)C)NC(=O)[C@@H](CC(C)C)NC(=O)[C@H]2CCCN2C(=O)[C@H](CC(C)C)NC1=O	TRUE

We next turn to a different compound, shown below.
### Prompt Form field: solubility thermodynamic at 24 h at least 400 µM? Entry: CC(C)C[C@@H]1NC(=O)[C@@H](CC(C)C)NC(=O)[C@@H](CC(C)C)NC(=O)[C@@H](CC(C)C)NC(=O)[C@@H](CC(C)C)NC(=O)[C@H]2CCCN2C1=O
### Response FALSE

----------
assay: Apparent permeability of the compound after 15 hrs by UPLC-MS based PAMPA; type: ADME; settings: PAMPA
QUANTITY: Papp at 15 h (×10⁻⁶ cm/s)
Lab book: enter the figure in ×10⁻⁶ cm/s, no units written.

SMILES CODE	QUANTITY	OBS VALUE
CC(C)C[C@@H]1NC(=O)[C@@H](CC(C)C)NC(=O)[C@H](CC(C)C)NC(=O)[C@@H](CCC(=O)N(C)C)NC(=O)[C@H]2CCCN2C(=O)[C@H](CC(C)C)NC1=O	Papp at 15 h	0.7
CC(C)C[C@@H]1NC(=O)[C@@H](CCC(=O)N2CCCC2)NC(=O)[C@@H](CC(C)C)NC(=O)[C@@H](CC(C)C)NC(=O)[C@H]2CCCN2C(=O)[C@H](CC(C)C)NC1=O	Papp at 15 h	0.3
CC(C)C[C@@H]1NC(=O)[C@@H](CC(C)C)NC(=O)[C@@H](CCC(=O)N2CCCC2)NC(=O)[C@@H](CC(C)C)NC(=O)[C@@H](CC(C)C)NC(=O)[C@H]2CCCN2C1=O	Papp at 15 h	1.3
CC(C)C[C@@H]1NC(=O)[C@@H](CC(C)C)NC(=O)[C@H](CCC(=O)N2CCCC2)NC(=O)[C@@H](CC(C)C)NC(=O)[C@H]2CCCN2C(=O)[C@H](CC(C)C)NC1=O	Papp at 15 h	0.23

### Prompt Return Papp at 15 h for the following molecule: CC(C)C[C@@H]1NC(=O)[C@@H](CC(C)C)NC(=O)[C@@H](CC(C)C)NC(=O)[C@@H](CCC(=O)N2CCCC2)NC(=O)[C@@H](CC(C)C)NC(=O)[C@H]2CCCN2C1=O
### Response 1.1
